target or test system: E. coli topoisomerase IV (Escherichia coli, UniProt P0AFI2+P20083)
Construct: purchased John Innes Enterprises Ltd. (John Innes Centre, UK)
Sequence (P0AFI2 whole entry): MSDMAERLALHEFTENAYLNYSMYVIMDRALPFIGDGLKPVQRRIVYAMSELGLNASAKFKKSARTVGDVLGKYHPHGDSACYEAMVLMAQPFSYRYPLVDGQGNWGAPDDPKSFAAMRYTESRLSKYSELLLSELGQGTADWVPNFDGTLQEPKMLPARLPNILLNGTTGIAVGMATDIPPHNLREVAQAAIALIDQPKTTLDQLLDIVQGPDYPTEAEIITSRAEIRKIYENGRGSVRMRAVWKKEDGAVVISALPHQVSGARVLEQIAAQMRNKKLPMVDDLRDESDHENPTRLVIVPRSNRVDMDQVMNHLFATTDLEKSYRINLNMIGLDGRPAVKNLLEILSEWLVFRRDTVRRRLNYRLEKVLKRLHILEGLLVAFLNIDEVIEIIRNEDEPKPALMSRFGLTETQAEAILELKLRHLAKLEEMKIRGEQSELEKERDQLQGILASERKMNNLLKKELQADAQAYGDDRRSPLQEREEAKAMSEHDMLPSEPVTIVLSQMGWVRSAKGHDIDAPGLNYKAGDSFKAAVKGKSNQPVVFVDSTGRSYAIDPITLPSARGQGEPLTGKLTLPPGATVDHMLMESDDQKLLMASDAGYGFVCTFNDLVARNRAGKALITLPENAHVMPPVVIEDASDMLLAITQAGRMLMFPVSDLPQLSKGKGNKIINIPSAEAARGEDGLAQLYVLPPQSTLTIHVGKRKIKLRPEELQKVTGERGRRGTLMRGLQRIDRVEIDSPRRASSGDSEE
Sequence (P20083 whole entry): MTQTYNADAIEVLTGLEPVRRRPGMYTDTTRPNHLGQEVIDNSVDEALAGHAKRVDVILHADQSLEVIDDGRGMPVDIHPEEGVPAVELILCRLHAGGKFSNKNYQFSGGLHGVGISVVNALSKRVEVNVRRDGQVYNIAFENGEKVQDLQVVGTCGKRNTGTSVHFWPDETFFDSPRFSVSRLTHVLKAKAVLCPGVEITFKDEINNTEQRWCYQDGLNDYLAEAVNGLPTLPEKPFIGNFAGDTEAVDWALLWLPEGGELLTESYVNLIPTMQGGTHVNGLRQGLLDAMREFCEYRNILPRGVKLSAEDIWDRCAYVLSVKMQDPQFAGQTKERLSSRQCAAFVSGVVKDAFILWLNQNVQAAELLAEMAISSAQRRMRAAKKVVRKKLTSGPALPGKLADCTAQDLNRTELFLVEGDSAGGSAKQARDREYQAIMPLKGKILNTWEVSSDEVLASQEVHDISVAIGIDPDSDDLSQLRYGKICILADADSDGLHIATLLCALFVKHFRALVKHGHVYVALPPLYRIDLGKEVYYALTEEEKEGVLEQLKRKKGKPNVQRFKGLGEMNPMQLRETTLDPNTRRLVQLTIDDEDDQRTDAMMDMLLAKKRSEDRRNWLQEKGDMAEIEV
assay details: Topoisomerase IV inhibition assay (relaxation)
Format: biochemical
pIC50: −log10 of the molar value.
attribute measured: pIC50

INSERT INTO measurements (molecule, data_value) VALUES
  ('COc1ccc2nccc(-n3cc4c(n3)CCC(NCCOc3cc(F)cc(F)c3)C4)c2c1 (stereo not shown) [Example 121]', 6.56);

====

target or test system: E. coli topoisomerase IV (Escherichia coli, UniProt P0AFI2+P20083)
Construct: purchased John Innes Enterprises Ltd. (John Innes Centre, UK)
assay details: Topoisomerase IV inhibition assay (relaxation)
Format: biochemical
experimental conditions: E. coli topoisomerase IV relaxation, visual inspection of gels; read-out: Topoisomerase IV IC50 (converted)
attribute measured: IC50 (nM)

INSERT INTO assay_data (compound, target_or_test_system, attribute_measured, readout_relation, data_value) VALUES
  ('COc1ccc2nccc(-n3cc4c(n3)CCC(NCc3ccc5c(c3)NCCS5)C4)c2c1 (stereo not shown)', 'E. coli topoisomerase IV (Escherichia coli, UniProt P0AFI2+P20083)', 'IC50', '=', 137),
  ('COc1ccc2nccc(-n3cc4c(n3)CCC(NCc3cc5c(cc3F)SCC(=O)N5)C4)c2n1 (stereo not shown)', 'E. coli topoisomerase IV (Escherichia coli, UniProt P0AFI2+P20083)', 'IC50', '=', 122),
  ('O=C1CSc2cc(F)c(C(=O)NC3CCc4nn(-c5cccc6cccnc56)cc4C3)cc2N1 (stereo not shown)', 'E. coli topoisomerase IV (Escherichia coli, UniProt P0AFI2+P20083)', 'IC50', '=', 264),
  ('COc1ccc2nccc(-n3cc4c(n3)CCC(NC(=O)c3cc5ccccc5s3)C4)c2c1 (stereo not shown)', 'E. coli topoisomerase IV (Escherichia coli, UniProt P0AFI2+P20083)', 'IC50', '>', 2200);

====

System: S. aureus ATCC13709
assay details: In vitro antibacterial activity (MIC assay), broth microdilution
Format: cell-based
experimental conditions: Staphylococcus aureus, ATCC13709; read-out: S. aureus ATCC13709 MIC
attribute measured: MIC (µg/mL)

INSERT INTO results (molecule, quantity_unit, readout_relation, data_value) VALUES
  ('O=C1CSc2cc(F)c(C(=O)NC3CCc4nn(-c5cccc6cccnc56)cc4C3)cc2N1 (stereo not shown)', 'µg/mL', '=', 0.25),
  ('O=C1CSc2ccc(C(=O)NC3CCc4c(cnn4-c4cc(C(F)(F)F)nc5ccccc45)C3)cc2N1 (stereo not shown)', 'µg/mL', '>', 128),
  ('COc1ccc2nccc(-n3cc4c(n3)CCC(NC(=O)c3ccc5c(c3)OCCN5C)C4)c2c1 (stereo not shown)', 'µg/mL', '=', 4),
  ('COc1ccc2nccc(-n3cc4c(n3)CCC(NC(=O)c3nc5ccccc5[nH]3)C4)c2n1 (stereo not shown)', 'µg/mL', '=', 0.25),
  ('COc1ccc2nccc(-n3cc4c(n3)CCC(NC(=O)c3ccc(C)c([N+](=O)[O-])c3)C4)c2n1 (stereo not shown)', 'µg/mL', '=', 0.25),
  ('COc1ccc2nccc(-n3cc4c(n3)CCC(NC(=O)/C=C/c3ccc(F)cc3F)C4)c2n1 (stereo not shown)', 'µg/mL', '=', 0.125),
  ('COc1ccc2nccc(-n3cc4c(n3)CCC(NC/C(C)=C/c3ccccc3)C4)c2c1 (stereo not shown)', 'µg/mL', '=', 1),
  ('COc1ccc2nccc(-n3cc4c(n3)CCC(NCCCc3ccc(C)cc3)C4)c2n1 (stereo not shown)', 'µg/mL', '<', 0.125),
  ('COc1ccc2nccc(-n3cc4c(n3)CCC(NC(=O)c3cc5c(cc3F)SCC(=O)N5)C4)c2c1 (stereo not shown)', 'µg/mL', '=', 0.03),
  ('COc1ccc2nccc(-n3cc4c(n3)CCC(NC(=O)C(=O)c3cc5ccccc5[nH]3)C4)c2n1 (stereo not shown)', 'µg/mL', '=', 0.25),
  ('COc1ccc2nccc(-n3cc4c(n3)CCC(NC(=O)c3c(F)cc5c(c3F)NC(=O)CS5)C4)c2n1 (stereo not shown)', 'µg/mL', '=', 0.125),
  ('COc1ccc2nccc(-n3cc4c(n3)CCC(NC(=O)/C=C/c3ccc(Cl)cc3)C4)c2n1 (stereo not shown)', 'µg/mL', '=', 0.5),
  ('COc1ccc2nccc(-n3cc4c(n3)CCC(NCC(=O)Nc3cc(F)cc(F)c3)C4)c2n1 (stereo not shown)', 'µg/mL', '=', 0.25),
  ('COc1ccc2nccc(-n3cc4c(n3)CCC(NCc3ccc(N(C)C)c(C#N)c3F)C4)c2c1 (stereo not shown)', 'µg/mL', '=', 1),
  ('COc1ccc2nccc(-n3cc4c(n3)CCC(NC(=O)c3cc5c(cc3C)SCC(=O)N5)C4)c2c1 (stereo not shown)', 'µg/mL', '=', 0.5),
  ('COc1ccc2nccc(-n3cc4c(n3)CCC(NC(=O)c3cc(NC(C)=O)ccc3Br)C4)c2n1 (stereo not shown)', 'µg/mL', '=', 4);
